polymerase ribozyme fitness (log ratio) for assorted variants
B1: TPR 5TU (parent)
chain: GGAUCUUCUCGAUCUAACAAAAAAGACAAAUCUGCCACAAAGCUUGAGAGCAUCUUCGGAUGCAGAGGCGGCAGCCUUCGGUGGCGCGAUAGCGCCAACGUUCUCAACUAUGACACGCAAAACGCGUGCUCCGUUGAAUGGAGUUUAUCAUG

- Variants of: B1
- ASSAY_EXPLANATION: polymerase ribozyme fitness, log enrichment relative to wild type (log ratio); higher = more active; in vitro selection for triplet polymerase activity
Fewer inactive variants are shown than the library holds.

{"MUTATION_STRING": "A17U A49U C85A A97U", "RESULT_COMPARATOR": "≤", "polymerase ribozyme fitness (log ratio)": -4.2}
{"MUTATION_STRING": "U55G G80A", "RESULT_COMPARATOR": "=", "polymerase ribozyme fitness (log ratio)": -2.09}
{"MUTATION_STRING": "C5A U45C A64U C75A G141C U145C A150U", "RESULT_COMPARATOR": "≤", "polymerase ribozyme fitness (log ratio)": -4.2}
{"MUTATION_STRING": "C54G G68C G80A G94U A98G", "RESULT_COMPARATOR": "≤", "polymerase ribozyme fitness (log ratio)": -4.2}
{"MUTATION_STRING": "A22C G46C G83C", "RESULT_COMPARATOR": "=", "polymerase ribozyme fitness (log ratio)": -3.01}
{"MUTATION_STRING": "A30U U61G G68A C93U C103G A147C", "RESULT_COMPARATOR": "≤", "polymerase ribozyme fitness (log ratio)": -4.2}
{"MUTATION_STRING": "U6A A24C G48A C93U U127G U144A", "RESULT_COMPARATOR": "≤", "polymerase ribozyme fitness (log ratio)": -4.2}
{"MUTATION_STRING": "A23G C93U U101A G140U", "RESULT_COMPARATOR": "=", "polymerase ribozyme fitness (log ratio)": -3.86}
{"MUTATION_STRING": "A16C A22U A89U C93U", "RESULT_COMPARATOR": "=", "polymerase ribozyme fitness (log ratio)": -3.06}
{"MUTATION_STRING": "A20G A21U A26U A29U A39C A91G G94U A97G C99A C131A A142G", "RESULT_COMPARATOR": "≤", "polymerase ribozyme fitness (log ratio)": -4.2}
{"MUTATION_STRING": "A19C C57U G94U", "RESULT_COMPARATOR": "=", "polymerase ribozyme fitness (log ratio)": -0.554}
{"MUTATION_STRING": "G58C U61A C79A A91G G117A", "RESULT_COMPARATOR": "≤", "polymerase ribozyme fitness (log ratio)": -4.2}
{"MUTATION_STRING": "A40U C79G A91G", "RESULT_COMPARATOR": "≤", "polymerase ribozyme fitness (log ratio)": -4.2}
{"MUTATION_STRING": "C93U U102G G117U U135A", "RESULT_COMPARATOR": "≤", "polymerase ribozyme fitness (log ratio)": -4.2}
{"MUTATION_STRING": "A28G C93U U127C", "RESULT_COMPARATOR": "≤", "polymerase ribozyme fitness (log ratio)": -4.2}
{"MUTATION_STRING": "G50U G83A", "RESULT_COMPARATOR": "=", "polymerase ribozyme fitness (log ratio)": -0.347}
{"MUTATION_STRING": "A22G G84A A91C C103G U104G", "RESULT_COMPARATOR": "≤", "polymerase ribozyme fitness (log ratio)": -4.2}
{"MUTATION_STRING": "G42A G58A G100C", "RESULT_COMPARATOR": "≤", "polymerase ribozyme fitness (log ratio)": -4.2}
{"MUTATION_STRING": "A3C C10G A49C C54U A60U A91C G100A G136U U139C", "RESULT_COMPARATOR": "≤", "polymerase ribozyme fitness (log ratio)": -4.2}
{"MUTATION_STRING": "U56G G100U U134A U146A U148A", "RESULT_COMPARATOR": "≤", "polymerase ribozyme fitness (log ratio)": -4.2}
{"MUTATION_STRING": "C10A U56G C57G G59A C79U G83C C99G", "RESULT_COMPARATOR": "≤", "polymerase ribozyme fitness (log ratio)": -4.2}
{"MUTATION_STRING": "A20G A24U C85A C116A", "RESULT_COMPARATOR": "=", "polymerase ribozyme fitness (log ratio)": -0.238}
{"MUTATION_STRING": "C63A G80A C85G C96G A110G", "RESULT_COMPARATOR": "≤", "polymerase ribozyme fitness (log ratio)": -4.2}
{"MUTATION_STRING": "C14G U53A C85G U90A A91U C99A C118A A120U", "RESULT_COMPARATOR": "≤", "polymerase ribozyme fitness (log ratio)": -4.2}
{"MUTATION_STRING": "U111C G117U", "RESULT_COMPARATOR": "=", "polymerase ribozyme fitness (log ratio)": -4.09}
{"MUTATION_STRING": "A21C C57G G81A A115C", "RESULT_COMPARATOR": "=", "polymerase ribozyme fitness (log ratio)": -1.84}
{"MUTATION_STRING": "C57A G117U", "RESULT_COMPARATOR": "=", "polymerase ribozyme fitness (log ratio)": 0.691}
{"MUTATION_STRING": "U13G U56A G71A U135C", "RESULT_COMPARATOR": "≤", "polymerase ribozyme fitness (log ratio)": -4.2}
{"MUTATION_STRING": "G74U C85G", "RESULT_COMPARATOR": "≤", "polymerase ribozyme fitness (log ratio)": -4.2}
{"MUTATION_STRING": "G11A A26C G68U C75U A147C", "RESULT_COMPARATOR": "≤", "polymerase ribozyme fitness (log ratio)": -4.2}
{"MUTATION_STRING": "A22U A26G A28C A37U U56A C96U A98U", "RESULT_COMPARATOR": "≤", "polymerase ribozyme fitness (log ratio)": -4.2}
{"MUTATION_STRING": "A52G U56G G83A", "RESULT_COMPARATOR": "=", "polymerase ribozyme fitness (log ratio)": -2.85}
{"MUTATION_STRING": "A60U G70A C85U G86A", "RESULT_COMPARATOR": "≤", "polymerase ribozyme fitness (log ratio)": -4.2}
{"MUTATION_STRING": "U55A C72U C79A A107G", "RESULT_COMPARATOR": "≤", "polymerase ribozyme fitness (log ratio)": -4.2}
{"MUTATION_STRING": "C57G G71A C96A U146A", "RESULT_COMPARATOR": "=", "polymerase ribozyme fitness (log ratio)": -4.05}
{"MUTATION_STRING": "C14A A16G", "RESULT_COMPARATOR": "=", "polymerase ribozyme fitness (log ratio)": -0.651}
{"MUTATION_STRING": "U7C G92C", "RESULT_COMPARATOR": "=", "polymerase ribozyme fitness (log ratio)": -2.73}
{"MUTATION_STRING": "U13C C14G A66G A73G C95U A110G", "RESULT_COMPARATOR": "≤", "polymerase ribozyme fitness (log ratio)": -4.2}
{"MUTATION_STRING": "G48U C75G G92U", "RESULT_COMPARATOR": "≤", "polymerase ribozyme fitness (log ratio)": -4.2}
{"MUTATION_STRING": "C51U G67A C72A C123U C132A U134C", "RESULT_COMPARATOR": "≤", "polymerase ribozyme fitness (log ratio)": -4.2}
{"MUTATION_STRING": "C129G U134G", "RESULT_COMPARATOR": "=", "polymerase ribozyme fitness (log ratio)": -3.81}
{"MUTATION_STRING": "A113U G124U", "RESULT_COMPARATOR": "=", "polymerase ribozyme fitness (log ratio)": -2.07}
{"MUTATION_STRING": "A3U G94A", "RESULT_COMPARATOR": "=", "polymerase ribozyme fitness (log ratio)": -1.21}
{"MUTATION_STRING": "G48C U145G", "RESULT_COMPARATOR": "=", "polymerase ribozyme fitness (log ratio)": -0.0374}
{"MUTATION_STRING": "C5U U13G A20C C27G G80A C87U U148G", "RESULT_COMPARATOR": "≤", "polymerase ribozyme fitness (log ratio)": -4.2}
{"MUTATION_STRING": "A21U C54A C96U", "RESULT_COMPARATOR": "=", "polymerase ribozyme fitness (log ratio)": -2.01}
